system: S. aureus (VISA); experiment: MIC, clinical and laboratory strains; assay type: cell-based; details: S. aureus (VISA) 2014
For each entry below, report its MIC value.
Give bare numbers, in µg/mL.

Use the examples below as a reference point.
C/C(=C\C(=O)OCCCCCCCCC(=O)O)C[C@@H]1OC[C@H](C[C@@H]2O[C@H]2[C@@H](C)[C@H](C)O)[C@@H](O)[C@H]1O    0.5
CN[C@H](CC(C)C)C(=O)N[C@H]1C(=O)N[C@@H](CC(N)=O)C(=O)N[C@H]2C(=O)N[C@H]3C(=O)N[C@H](C(=O)N[C@H](C(=O)O)c4cc(O)cc(O)c4-c4cc3ccc4O)[C@H](O)c3ccc(c(Cl)c3)Oc3cc2cc(c3O[C@@H]2O[C@H](CO)[C@@H](O)[C@H](O)[C@H]2O[C@H]2C[C@](C)(N)[C@H](O)[C@H](C)O2)Oc2ccc(cc2Cl)[C@H]1O    4

Below: the item to evaluate.
# input Using S. aureus (VISA) as the test system, report measured MIC of CC(C)c1cc(Cl)ccc1-c1cc(-c2nnn[nH]2)c(-c2ccc(Cl)cc2C(C)C)s1 .
# output 2

---

Please respond with reported MIC for every item in the list.
tested on: S. aureus (MRSA); assay: MIC, clinical and laboratory strains; assay type: cell-based; settings: S. aureus (MRSA) NRS384/2011
One number for each entry, in µg/mL.

Check out these entries, answers already filled in.
C/C(=C\C(=O)OCCCCCCCCC(=O)O)C[C@@H]1OC[C@H](C[C@@H]2O[C@H]2[C@@H](C)[C@H](C)O)[C@@H](O)[C@H]1O    1
CC(C)c1cc(Cl)ccc1-c1cc(-c2nnn[nH]2)c(-c2ccc(Cl)cc2C(C)C)s1    2

Proceeding to the next compound to report its MIC.
# input Using known records, supply MIC for CN[C@H](CC(C)C)C(=O)N[C@H]1C(=O)N[C@@H](CC(N)=O)C(=O)N[C@H]2C(=O)N[C@H]3C(=O)N[C@H](C(=O)N[C@H](C(=O)O)c4cc(O)cc(O)c4-c4cc3ccc4O)[C@H](O)c3ccc(c(Cl)c3)Oc3cc2cc(c3O[C@@H]2O[C@H](CO)[C@@H](O)[C@H](O)[C@H]2O[C@H]2C[C@](C)(N)[C@H](O)[C@H](C)O2)Oc2ccc(cc2Cl)[C@H]1O
# output 0.5

---

tested on: S. aureus (MRSA); experiment: MIC, clinical and laboratory strains; assay type: cell-based; conditions: S. aureus (MRSA) 5999
value-kind: MIC (µg/mL)
One number for each entry, in µg/mL.

Previously resolved entries follow.
C/C(=C\C(=O)OCCCCCCCCC(=O)O)C[C@@H]1OC[C@H](C[C@@H]2O[C@H]2[C@@H](C)[C@H](C)O)[C@@H](O)[C@H]1O    1
CN[C@H](CC(C)C)C(=O)N[C@H]1C(=O)N[C@@H](CC(N)=O)C(=O)N[C@H]2C(=O)N[C@H]3C(=O)N[C@H](C(=O)N[C@H](C(=O)O)c4cc(O)cc(O)c4-c4cc3ccc4O)[C@H](O)c3ccc(c(Cl)c3)Oc3cc2cc(c3O[C@@H]2O[C@H](CO)[C@@H](O)[C@H](O)[C@H]2O[C@H]2C[C@](C)(N)[C@H](O)[C@H](C)O2)Oc2ccc(cc2Cl)[C@H]1O    0.5

Please examine the following record next.
# input Determine its reported MIC: CC(C)c1cc(Cl)ccc1-c1cc(-c2nnn[nH]2)c(-c2ccc(Cl)cc2C(C)C)s1
# output 1

---

test system: S. aureus (MSSA); assay: MIC, clinical and laboratory strains; format: cell-based; conditions: S. aureus (MSSA) 2127
value-kind: MIC

C/C(=C\C(=O)OCCCCCCCCC(=O)O)C[C@@H]1OC[C@H](C[C@@H]2O[C@H]2[C@@H](C)[C@H](C)O)[C@@H](O)[C@H]1O    > 16 µg/mL
CC[C@H]1OC(=O)[C@H](C)[C@@H](O[C@H]2C[C@@](C)(OC)[C@@H](O)[C@H](C)O2)[C@H](C)[C@@H](O[C@@H]2O[C@H](C)C[C@H](N(C)C)[C@H]2O)[C@](C)(O)C[C@@H](C)C(=O)[C@H](C)[C@@H](O)[C@]1(C)O    0.12 µg/mL
CN[C@H](CC(C)C)C(=O)N[C@H]1C(=O)N[C@@H](CC(N)=O)C(=O)N[C@H]2C(=O)N[C@H]3C(=O)N[C@H](C(=O)N[C@H](C(=O)O)c4cc(O)cc(O)c4-c4cc3ccc4O)[C@H](O)c3ccc(c(Cl)c3)Oc3cc2cc(c3O[C@@H]2O[C@H](CO)[C@@H](O)[C@H](O)[C@H]2O[C@H]2C[C@](C)(N)[C@H](O)[C@H](C)O2)Oc2ccc(cc2Cl)[C@H]1O    1 µg/mL

We next turn to a different compound, shown below.
# input For the compound CC(C)c1cc(Cl)ccc1-c1cc(-c2nnn[nH]2)c(-c2ccc(Cl)cc2C(C)C)s1 , give its measured MIC value.
# output 1 µg/mL

---

target: AcpS^N82/81A (Escherichia coli, UniProt P24224, N81A); construct: 6x-His (C); assay: Inhibition of purified AcpS site-directed mutant by DNM0547
Sequence (P24224 whole entry N81A): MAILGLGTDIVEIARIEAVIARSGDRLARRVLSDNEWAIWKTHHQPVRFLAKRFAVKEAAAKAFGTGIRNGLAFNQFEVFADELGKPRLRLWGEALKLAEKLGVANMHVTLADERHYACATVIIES
value-kind: pIC50
Numbers only, as −log10 of the molar value.

# input Please report pIC50 with AcpS^N82/81A (Escherichia coli, UniProt P24224, N81A) for item CC(C)c1cc(Cl)ccc1-c1cc(-c2nnn[nH]2)c(-c2ccc(Cl)cc2C(C)C)s1 .
# output 5.30

---

system: S. aureus (MRSA); experiment: MIC, clinical and laboratory strains; type: cell-based; details: S. aureus (MRSA) 2295
Task for the reader: assign each of the following molecules its reported MIC.
Answers are plain numbers, in µg/mL.

Example results:
C/C(=C\C(=O)OCCCCCCCCC(=O)O)C[C@@H]1OC[C@H](C[C@@H]2O[C@H]2[C@@H](C)[C@H](C)O)[C@@H](O)[C@H]1O [mupirocin]    0.25
CC(C)c1cc(Cl)ccc1-c1cc(-c2nnn[nH]2)c(-c2ccc(Cl)cc2C(C)C)s1 [DNM0547]    1

Next molecule, please.
# input Specify MIC for CN[C@H](CC(C)C)C(=O)N[C@H]1C(=O)N[C@@H](CC(N)=O)C(=O)N[C@H]2C(=O)N[C@H]3C(=O)N[C@H](C(=O)N[C@H](C(=O)O)c4cc(O)cc(O)c4-c4cc3ccc4O)[C@H](O)c3ccc(c(Cl)c3)Oc3cc2cc(c3O[C@@H]2O[C@H](CO)[C@@H](O)[C@H](O)[C@H]2O[C@H]2C[C@](C)(N)[C@H](O)[C@H](C)O2)Oc2ccc(cc2Cl)[C@H]1O [vancomycin] and stop.
# output 0.5

---

system: S. aureus (MRSA); test: MIC, clinical and laboratory strains; format: cell-based; details: S. aureus (MRSA) 2168
value-kind: MIC

Some solved cases for reference:
CN[C@H](CC(C)C)C(=O)N[C@H]1C(=O)N[C@@H](CC(N)=O)C(=O)N[C@H]2C(=O)N[C@H]3C(=O)N[C@H](C(=O)N[C@H](C(=O)O)c4cc(O)cc(O)c4-c4cc3ccc4O)[C@H](O)c3ccc(c(Cl)c3)Oc3cc2cc(c3O[C@@H]2O[C@H](CO)[C@@H](O)[C@H](O)[C@H]2O[C@H]2C[C@](C)(N)[C@H](O)[C@H](C)O2)Oc2ccc(cc2Cl)[C@H]1O    0.5 µg/mL
C/C(=C\C(=O)OCCCCCCCCC(=O)O)C[C@@H]1OC[C@H](C[C@@H]2O[C@H]2[C@@H](C)[C@H](C)O)[C@@H](O)[C@H]1O    0.25 µg/mL
CC(C)c1cc(Cl)ccc1-c1cc(-c2nnn[nH]2)c(-c2ccc(Cl)cc2C(C)C)s1    1 µg/mL

Here is another compound to look at.
# input Quick one: give measured MIC for CC[C@H]1OC(=O)[C@H](C)[C@@H](O[C@H]2C[C@@](C)(OC)[C@@H](O)[C@H](C)O2)[C@H](C)[C@@H](O[C@@H]2O[C@H](C)C[C@H](N(C)C)[C@H]2O)[C@](C)(O)C[C@@H](C)C(=O)[C@H](C)[C@@H](O)[C@]1(C)O
# output > 16 µg/mL

---

system: S. aureus (VISA); experiment: MIC, clinical and laboratory strains; assay type: cell-based; conditions: S. aureus (VISA) 2013
value-kind: MIC

Provide reported MIC for each item, in the same order as listed.
1. CC[C@H]1OC(=O)[C@H](C)[C@@H](O[C@H]2C[C@@](C)(OC)[C@@H](O)[C@H](C)O2)[C@H](C)[C@@H](O[C@@H]2O[C@H](C)C[C@H](N(C)C)[C@H]2O)[C@](C)(O)C[C@@H](C)C(=O)[C@H](C)[C@@H](O)[C@]1(C)O
2. CC(C)c1cc(Cl)ccc1-c1cc(-c2nnn[nH]2)c(-c2ccc(Cl)cc2C(C)C)s1
3. CN[C@H](CC(C)C)C(=O)N[C@H]1C(=O)N[C@@H](CC(N)=O)C(=O)N[C@H]2C(=O)N[C@H]3C(=O)N[C@H](C(=O)N[C@H](C(=O)O)c4cc(O)cc(O)c4-c4cc3ccc4O)[C@H](O)c3ccc(c(Cl)c3)Oc3cc2cc(c3O[C@@H]2O[C@H](CO)[C@@H](O)[C@H](O)[C@H]2O[C@H]2C[C@](C)(N)[C@H](O)[C@H](C)O2)Oc2ccc(cc2Cl)[C@H]1O
4. C/C(=C\C(=O)OCCCCCCCCC(=O)O)C[C@@H]1OC[C@H](C[C@@H]2O[C@H]2[C@@H](C)[C@H](C)O)[C@@H](O)[C@H]1O

# output
1: > 16 µg/mL; 2: 2 µg/mL; 3: 4 µg/mL; 4: 0.25 µg/mL
